Test system: Human immunodeficiency virus 1
run-description: Effective concentration of compound required to protect human T-lymphocytic cells against the cytopathogenicity of HIV-1
Assay type: functional, organism-based
measurement-parameters: Human immunodeficiency virus 1
Recorded pEC50 for the following molecules
// pEC50: -log10(molar conc.)

| molecule | experimental-target | pEC50 |
| --- | --- | --- |
| CNC1C(=O)NC2Cc3ccc(cc3)Oc3cc4cc(c3O)Oc3ccc(cc3Cl)C(O)C3NC(=O)C(NC(=O)C4NC(=O)C(NC2=O)c2cc(cc(O)c2Cl)Oc2cc1ccc2O)c1ccc(O)c(c1)-c1c(O)cc(O)cc1[C@H](C(=O)O)NC3=O (some centres not stated) | Human immunodeficiency virus 1 | 4.40 |

Read the next record carefully.
Give the reported pEC50 for this molecule. CCCCc1ccc(CNC2C(Oc3c4cc5cc3Oc3ccc(cc3Cl)C(O)C3NC(=O)C(NC(=O)C5NC(=O)C5NC(=O)C(Cc6ccc(cc6)O4)NC(=O)C(NC)c4ccc(O)c(c4)Oc4cc(O)c(Cl)c5c4)c4ccc(O)c(c4)-c4c(cc(O)c(CN5CCN(Cc6ccc(-c7ccccc7)cc6)CC5)c4O)[C@H](C(=O)O)NC3=O)OC(C(=O)O)C(O)C2O)cc1 (some centres not stated) 5.46

###

System: Human immunodeficiency virus 1
run-description: Effective concentration of compound required to protect human T-lymphocytic cells against the cytopathogenicity of HIV-1
Assay type: functional, organism-based
measurement-parameters: Human immunodeficiency virus 1
Overview of recorded pEC50 for various molecules
The quantity pEC50 is defined as the negative base-10 logarithm of the molar concentration.

| molecule | pEC50 |
| --- | --- |
| COC(=O)[C@@H]1NC(=O)C2NC(=O)C(NC(=O)C(NC(=O)OC(C)(C)C)c3cc(Oc4ccc(CC(NC(=O)OCc5ccccc5)C(=O)O)cc4Cl)c(O)c(c3)Oc3ccc(cc3Cl)C2O)c2ccc(O)c(c2)-c2c1cc(O)c(CNC1C3CC4CC(C3)CC1C4)c2O (stereo partly drawn) | 4.77 |

Please report the measured pEC50 for CNC(=O)[C@@H]1NC(=O)C2NC(=O)C(NC(=O)C3NC(=O)C4NC(=O)C(NC(=O)C(N)c5ccc(O)c(c5)Oc5cc(O)cc4c5)C(O)c4ccc(c(Cl)c4)Oc4cc3cc(c4O[C@@H]3O[C@@H](CO)[C@@H](O)[C@H](O)[C@@H]3NC(=O)CCCCCCC(C)C)Oc3ccc(cc3Cl)C2O[C@@H]2O[C@@H](CO)[C@@H](O)[C@H](O)[C@@H]2NC(C)=O)c2ccc(O)c(c2)-c2c(O[C@H]3O[C@H](CO)[C@@H](O)[C@@H](O)[C@@H]3O)cc(O)cc21 (stereo partly drawn) 4.10

Return pEC50 for the following molecule: O=C(NC1C(=O)NC2Cc3ccc(c(Cl)c3)Oc3cc4cc(c3O)Oc3ccc(cc3Cl)C(O)C3NC(=O)C(NC(=O)C4NC(=O)C(NC2=O)c2cc(O)cc(c2)Oc2cc1ccc2O)c1ccc(O)c(c1)-c1c(O)cc(O)cc1[C@H](C(=O)O)NC3=O)OCC1c2ccccc2-c2ccccc21 (stereo partly drawn) 4.77

###

Species on record: Mus musculus
run-description: Minimal inhibitory concentration required to cause a microscopic detectable alteration of C3H/3T3 embryo murine fibroblast cell morphology
Assay type: functional
property-measured: MIC

| molecule | test-value |
| --- | --- |
| CC(=O)N[C@@H]1[C@H](OC2c3ccc(c(Cl)c3)Oc3cc4cc(c3O[C@@H]3O[C@@H](CO)[C@@H](O)[C@H](O)[C@@H]3NC(=O)CCCCCCC(C)C)Oc3ccc(cc3Cl)C(O)C3NC(=O)C(N)c5ccc(O)c(c5)Oc5cc(O)cc(c5)C(NC3=O)C(=O)NC4C(=O)NC3C(=O)NC2C(=O)N[C@@H](C(=O)O)c2cc(O)cc(O[C@H]4O[C@H](CO)[C@@H](O)[C@@H](O)[C@@H]4O)c2-c2cc3ccc2O)O[C@@H](CO)[C@@H](O)[C@@H]1O (some centres not stated) | > 100 µM |

# input for lookup
Indicate its recorded MIC; the molecule in question is CN[C@@H](CC(C)C)C(=O)NC1C(=O)N[C@@H](CC(N)=O)C(=O)NC2C(=O)NC3C(=O)NC(C(=O)N[C@@H](C(=O)O)c4cc(O)cc(O)c4-c4cc3ccc4O)C(O)c3ccc(cc3)Oc3cc2cc(c3O)Oc2ccc(cc2Cl)C1O (some centres not stated) > 100 µM

###

System: Human immunodeficiency virus 1
run-description: Effective concentration of compound required to protect human T-lymphocytic cells against the cytopathogenicity of HIV-1
Assay type: functional, organism-based
measurement-parameters: Human immunodeficiency virus 1
property-measured: pEC50
On this scale, pEC50 is minus log10 of a concentration expressed in M (mol/L).

| compound | property-measured | test-value |
| --- | --- | --- |
| CCCCCCCCCCNC(=O)[C@@H]1NC(=O)C2NC(=O)C(NC(=O)C3NC(=O)C4NC(=O)C(Cc5ccc(c(Cl)c5)Oc5cc3cc(c5O)Oc3ccc(cc3Cl)C2O)NC(=O)C(N)c2ccc(O)c(c2)Oc2cc(O)cc4c2)c2ccc(O)c(c2)-c2c(O)cc(O)cc21 (some centres undefined) | pEC50 | 5.59 |
| NC(=O)CC1NC(=O)C(N)C(O)c2ccc(c(Cl)c2)Oc2cc3cc(c2O)Oc2ccc(cc2)C(O)C2NC(=O)C(NC(=O)C3NC1=O)c1ccc(O)c(c1)-c1c(cc(O)c(CNC3C4CC5CC(C4)CC3C5)c1O)[C@H](C(=O)O)NC2=O (some centres undefined) | pEC50 | 4.66 |
| COC(=O)[C@@H]1NC(=O)C2NC(=O)C(NC(=O)C3NC(=O)C4NC(=O)C(Cc5ccc(c(Cl)c5)Oc5cc3cc(c5O)Oc3ccc(cc3Cl)C2O)NC(=O)C(N)c2ccc(O)c(c2)Oc2cc(O)cc4c2)c2ccc(O)c(c2)-c2c(O)cc(O)cc21 (some centres undefined) | pEC50 | 5.02 |

Turning now to a further record.
For the compound NC1C(=O)NC2Cc3ccc(c(Cl)c3)Oc3cc4cc(c3O)Oc3ccc(cc3Cl)C(O)C(C(=O)O)NC(=O)C(c3ccc(O)c(-c5c(O)cc(O)cc5[C@@H](N)C(=O)O)c3)NC(=O)C4NC(=O)C(NC2=O)c2cc(O)cc(c2)Oc2cc1ccc2O (some centres undefined) , give its reported pEC50. 4.66

###

Organism: Mus musculus
run-description: Minimal inhibitory concentration required to cause a microscopic detectable alteration of C3H/3T3 embryo murine fibroblast cell morphology
Assay type: functional
property-measured: MIC (µM)
The answer is to be given in µM; state only the numeric part.

Give a short answer stating reported MIC for CN[C@H](CC(C)C)C(=O)N[C@H]1C(=O)N[C@@H](CC(N)=O)C(=O)N[C@H]2C(=O)N[C@H]3C(=O)N[C@H](C(=O)N[C@H](C(=O)NCc4ccc(-c5ccc(Cl)cc5)cc4)c4cc(O)cc(O)c4-c4cc3ccc4O)[C@H](O[C@H]3C[C@](C)(N)[C@@H](O)[C@H](C)O3)c3ccc(cc3)Oc3cc2cc(c3O[C@@H]2O[C@H](CO)[C@@H](O)[C@H](O)[C@H]2O[C@H]2C[C@](C)(N)[C@@H](O)[C@H](C)O2)Oc2ccc(cc2Cl)[C@H]1O . 4

###

Organism: Mus musculus
run-description: Minimal inhibitory concentration required to cause a microscopic detectable alteration of C3H/3T3 embryo murine fibroblast cell morphology
Type: functional
property-measured: MIC

| compound | MIC |
| --- | --- |
| COC(=O)[C@@H]1NC(=O)C2NC(=O)C(NC(=O)C3NC(=O)C4NC(=O)C(Cc5ccc(c(Cl)c5)Oc5cc3cc(c5O)Oc3ccc(cc3Cl)C2O)NC(=O)C(N)c2ccc(O)c(c2)Oc2cc(O)cc4c2)c2ccc(O)c(c2)-c2c(O)cc(O)cc21 (some centres not stated) | > 100 µM |

Provide only the value of recorded MIC for CNC1C(=O)NC2Cc3ccc(cc3)Oc3cc4cc(c3O[C@@H]3O[C@@H](C(=O)O)[C@@H](O)[C@H](O)[C@@H]3N)Oc3ccc(cc3Cl)C(O)C3NC(=O)C(NC(=O)C4NC(=O)C(NC2=O)c2cc(cc(O)c2Cl)Oc2cc1ccc2O)c1ccc(O)c(c1)-c1c(O[C@H]2O[C@H](CO)[C@@H](O)[C@@H](O)[C@@H]2O)cc(O)cc1[C@H](C(=O)O)NC3=O (some centres not stated) > 100 µM

###

Collected MIC values appear next to each entry.
Organism: Mus musculus
run-description: Minimal inhibitory concentration required to cause a microscopic detectable alteration of C3H/3T3 embryo murine fibroblast cell morphology
Type: functional

| compound | MIC |
| --- | --- |
| CCCCc1ccc(CNC2C(Oc3c4cc5cc3Oc3ccc(cc3Cl)C(O)C3NC(=O)C(NC(=O)C5NC(=O)C5NC(=O)C(Cc6ccc(cc6)O4)NC(=O)C(NC)c4ccc(O)c(c4)Oc4cc(O)c(Cl)c5c4)c4ccc(O)c(c4)-c4c(cc(O)c(CN5CCN(Cc6ccc(-c7ccccc7)cc6)CC5)c4O)[C@H](C(=O)O)NC3=O)OC(C(=O)O)C(O)C2O)cc1 (some centres not stated) | > 20 µM |

Determine from records and report MIC for CN[C@H](CC(C)C)C(=O)N[C@H]1C(=O)N[C@@H](CC(N)=O)C(=O)N[C@H]2C(=O)N[C@H]3C(=O)N[C@H](C(=O)N[C@H](C(=O)O)c4cc(O)cc(O)c4-c4cc3ccc4O)[C@H](O)c3ccc(c(Cl)c3)Oc3cc2cc(c3O[C@@H]2O[C@H](CO)[C@@H](O)[C@H](O)[C@H]2O[C@H]2C[C@](C)(NCc3ccc(-c4ccc(Cl)cc4)cc3)C(O)[C@H](C)O2)Oc2ccc(cc2Cl)[C@H]1O (some centres not stated) > 25 µM
